Source listed as paper PMC9863297.

testSummary: Edaravone solubility, slurry/shake-flask method with spectrophotometric determination at 243 nm
Type: physicochemical
protocolConditions: neat deep eutectic solvent, 40 °C, organic solvent or mixture, thermodynamic from solid, neat DES choline chloride + ethylene glycol (ETA) 1:1 molar ratio, 313.15 K; read-out: cE solubility concentration
valueType: solubility at 24 h

Q) Reported solubility at 24 h for CC1=NN(c2ccccc2)C(=O)C1 : what is it?
A) 484 mg/mL

----------
testSummary: Edaravone solubility, slurry/shake-flask method with spectrophotometric determination at 243 nm
Format: physicochemical
protocolConditions: neat deep eutectic solvent, 25 °C, organic solvent or mixture, thermodynamic from solid, neat DES choline chloride + ethylene glycol (ETA) 1:4 molar ratio, 298.15 K; read-out: cE solubility concentration
valueType: solubility at 24 h (mg/mL)
Give bare numbers, in mg/mL.

Q) What does the data say about its solubility at 24 h? Entry: CC1=NN(c2ccccc2)C(=O)C1 [edaravone, 5-methyl-2-phenyl-4H-pyrazol-3-one]
A) 280

----------
testSummary: Edaravone solubility, slurry/shake-flask method with spectrophotometric determination at 243 nm
Type: physicochemical
protocolConditions: 40 °C, aqueous with cosolvent or surfactant or cyclodextrin, thermodynamic from solid, water + GLE (ChCl:GL 1:2), x*GLE = 0.4, 313.15 K; read-out: cE solubility concentration
Method: The first step in obtaining a calibration curve was the preparation of a stock solution of edaravone with a concentration of 2.3 mg/mL. This initial solution was successfully diluted in 10 mL volumetric flasks with methanol and the obtained solutions with decreasing concentrations were measured spectrophotometrically. […] The limits of detection (LOD) and quantification (LOQ) were calculated as 5.899∙10^−4 mg/mL and 1.770∙10^−3 mg/mL, respectively. […]
valueType: solubility at 24 h (mg/mL)
Numbers only, in mg/mL.

Q) # query: solubility at 24 h of entry CC1=NN(c2ccccc2)C(=O)C1
A) 514

----------
testSummary: Edaravone solubility, slurry/shake-flask method with spectrophotometric determination at 243 nm
Type: physicochemical
protocolConditions: water, neat water (x*DES = 0.0), 308.15 K; read-out: cE solubility concentration
valueType: solubility at 24 h (µg/mL)
Numbers only, in µg/mL.

Q) Please look up its solubility at 24 h: CC1=NN(c2ccccc2)C(=O)C1 [edaravone, 5-methyl-2-phenyl-4H-pyrazol-3-one]
A) 1870

----------
testSummary: Edaravone solubility, slurry/shake-flask method with spectrophotometric determination at 243 nm
Assay type: physicochemical
protocolConditions: neat deep eutectic solvent, 30 °C, organic solvent or mixture, thermodynamic from solid, neat DES choline chloride + ethylene glycol (ETA) 1:2 molar ratio (x*ETA = 1.0), 303.15 K; read-out: cE solubility concentration
valueType: solubility at 24 h (mg/mL)
Numbers only, in mg/mL.

Q) Look at this compound and give its reported solubility at 24 h. CC1=NN(c2ccccc2)C(=O)C1 [edaravone, 5-methyl-2-phenyl-4H-pyrazol-3-one]
A) 392

----------
testSummary: Edaravone solubility, slurry/shake-flask method with spectrophotometric determination at 243 nm
Type: physicochemical
protocolConditions: deep eutectic solvent + water binary mixture, 40 °C, aqueous with cosolvent or surfactant or cyclodextrin, thermodynamic from solid, water + ETA (ChCl:EG 1:2), x*ETA = 0.5, 313.15 K; read-out: cE solubility concentration
valueType: solubility at 24 h (mg/mL)
Give bare numbers, in mg/mL.

Q) Request the reported solubility at 24 h associated with CC1=NN(c2ccccc2)C(=O)C1
A) 744
